assay-target: human D2R/β-arrestin (Homo sapiens (Human))
Sequence (P14416 whole entry): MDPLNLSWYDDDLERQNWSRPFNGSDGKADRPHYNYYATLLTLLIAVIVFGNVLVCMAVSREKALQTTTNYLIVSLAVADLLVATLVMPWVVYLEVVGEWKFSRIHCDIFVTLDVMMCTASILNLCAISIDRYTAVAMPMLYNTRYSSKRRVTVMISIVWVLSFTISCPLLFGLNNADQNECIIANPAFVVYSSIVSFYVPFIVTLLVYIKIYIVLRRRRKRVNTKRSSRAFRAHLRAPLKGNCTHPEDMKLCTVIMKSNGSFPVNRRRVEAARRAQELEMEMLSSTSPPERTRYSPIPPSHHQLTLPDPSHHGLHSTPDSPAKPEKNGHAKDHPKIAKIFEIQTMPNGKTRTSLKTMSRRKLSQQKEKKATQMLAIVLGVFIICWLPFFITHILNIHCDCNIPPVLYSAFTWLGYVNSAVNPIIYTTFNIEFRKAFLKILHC
measurement-protocol: cell-based
particulars: cAMP Antagonist, CHO-K1 cells expressing human D2R/β-arrestin; antagonist mode, 2.5 μM forskolin and 2.7 nM quinpirole
pIC50: −log10 of the molar value.
pIC50 values, listed per item

A selection of reference data follows.
Cc1ccccc1OCCN1CCC(C)(Oc2ccc(Cl)cc2)C1 (centres unmarked): 6.00 to 7.00
C[C@@]1(O)C[C@H]2CC[C@@H](C1)N2CCOc1ccccc1C(F)(F)F: 5.00 to 6.00
CNC(=O)C1(C)CCN(CCOc2ccccc2)CC1: < 4.52
CC1(Oc2ccc(Cl)cc2)CCN(CCOc2cnccc2C(F)(F)F)CC1: 6.00 to 7.00
FC(F)(F)c1ccccc1OCCN1CCC2(CC1)CCN2c1ccccc1: 6.00 to 7.00

Inquiry: # query: pIC50 of entry CC1(Oc2ccc(Cl)cc2)CCN(CCOc2cccc3ccccc23)C1 (centres unmarked)
Reply text: 6.00 to 7.00

Inquiry: Now consider CC1(O)CCN(CC2COc3ccccc3O2)CC1 (centres unmarked) .
Reply text: < 4.52

Inquiry: Now consider "C[C@]1(O)C[C@H]2CC[C@@H](C1)N2CCOc1ccccc1C(F)(F)F" .
Reply text: 6.00 to 7.00

----------
assay-target: human D2R/β-arrestin (Homo sapiens (Human))
measurement-protocol: Gi/cAMP agonist assay (Lance Ultra cAMP, forskolin)
Format: cell-based
particulars: CHO-K1 cells expressing human D2R/β-arrestin; agonist mode, 2.5 μM forskolin
pEC50: −log10 of the molar value.
reported-metric: pEC50

CC1(Oc2ccc(Cl)cc2)CCN(CCOc2cccnc2C(F)(F)F)CC1 [Compound 163]: > 7.00
CC1(Oc2cccc(C(F)(F)F)c2)CCCN(CCOc2ccccc2Cl)C1 (stereo not drawn) [Example 63]: < 4.52

Inquiry: # query: pEC50 of entry CNC(=O)C1(C)CCN(CC2COc3ccccc3O2)CC1 (single isomer, unassigned) [Compound 202a]
Reply text: 6.00 to 7.00

Inquiry: Now consider CC1(C(=O)Nc2ccccc2)CCN(CC2COc3ccccc3O2)CC1 (single isomer, unassigned) [Compound 204a] .
Reply text: < 4.52

Inquiry: Now consider CC1(Oc2ccc(Cl)cc2)CCN(CCOc2ccc(F)cc2S(C)(=O)=O)CC1 [Compound 158] .
Reply text: 6.00 to 7.00

----------
pIC50 values, listed per item
assay-target: human D2R/β-arrestin (Homo sapiens (Human))
measurement-protocol: cell-based
particulars: β-arrestin Antagonist, CHO-K1 cells expressing human D2R/β-arrestin; antagonist mode, quinpirole 130 nM
pIC50: −log10 of the molar value.

OC1(Cc2ccccc2)CCN(CCOc2ccccc2C(F)(F)F)CC1 [Compound 114]: > 7.00
CC1(Oc2ccc(Cl)cc2Cl)CCN(CCOc2ccccc2)C1 (stereo not drawn) [Example 48]: 4.52 to 5.00
CC1(Oc2ccc(Cl)cc2)CCN(CCOc2ccccc2C(F)(F)F)C1 (stereo not drawn) [Compound 8]: 5.00 to 6.00
CC(=O)NC1(C)CCN(C[C@H]2COc3ccccc3O2)CC1 [Compound 208]: > 7.00
CC1(Oc2ccc(Cl)cc2)CCN(CC2COc3ccccc3O2)CC1 (stereo not drawn) [Compound 142]: < 4.52
CC1(Oc2cccc(C(F)(F)F)c2)CCN(CCOc2ccccc2Cl)C1 (stereo not drawn) [Example 65]: 5.00 to 6.00
CC1(C(=O)Nc2ccccc2)CCN(CC2COc3ccccc3O2)CC1 (single isomer, unassigned) [Compound 204a]: 5.00 to 6.00
CC1(Oc2ccc(Cl)cc2)CCN(CCOc2cccc(F)c2C(F)(F)F)CC1 [Compound 156]: < 4.52

Inquiry: # query: pIC50 of entry CC1(Oc2ccccc2)CCN(CCOc2cc(F)ccc2C(F)(F)F)CC1 [Example 76]
Reply text: 6.00 to 7.00

Inquiry: Now consider CC1(Oc2ccccc2)CCN(C(C)(C)COc2ccccc2C(F)(F)F)CC1 [Example 80] .
Reply text: 5.00 to 6.00
